- TARGET OF ASSAY: T1, native human ESRRG protein (Estrogen-receptor related receptor gamma) (human, UniProt P62508 229-458, limits assumed)
- T1 construct: the screened protein is called 'native human ESRRG protein'; also called ESSRG; ERRγ
- T1 sequence (looked up): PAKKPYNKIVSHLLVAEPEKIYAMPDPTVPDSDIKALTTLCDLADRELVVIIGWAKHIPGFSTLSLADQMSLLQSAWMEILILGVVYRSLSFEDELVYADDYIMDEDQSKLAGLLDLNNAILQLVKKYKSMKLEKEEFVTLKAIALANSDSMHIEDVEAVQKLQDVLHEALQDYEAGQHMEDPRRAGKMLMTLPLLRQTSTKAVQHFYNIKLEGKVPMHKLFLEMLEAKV
- ASSAY NOTES: peptide microarray, Iteration 2; bound ESRRG detected with fluorescent anti-ESRRG mAb
Where no end group is shown, it is not given here.
ENDPOINT NAME: log2 (Sample B/Sample A)
One number for each entry.

{"BINDER": "Ac-HDNMYLNE", "DATA VALUE": 6.47}

Please state, for each entry, its recorded log2 (Sample B/Sample A).
1. Ac-YHNYLLHP
2. Ac-DRSYPRHT
3. Ac-AHNYLLEH

# output
1: 2.45; 2: 1.98; 3: 2.42

Please state, for each entry, its recorded log2 (Sample B/Sample A).
1. Ac-PWKLKQDP
2. Ac-VLLHYGLY
3. Ac-HRSYPRVY

# output
2.76
2.37
2.31
